# test-details: In vitro cytotoxicity assay (MTT cell viability) in HepG2 cells
# Format: cell-based, human
# test-parameters: human
observed-property: CC50 at 7 days

Some compounds with recorded CC50 at 7 days:
| compound | result |
| --- | --- |
| Cc1cc(NC(=O)c2c(C)c(C(=O)C(=O)N[C@H]3CCC[C@H](O)C3)n(C)c2C)ccc1F | > 30 µM |
| Cc1cc(NC(=O)c2c(C)c(C(=O)C(=O)N[C@H]3[C@@H]4CN(S(C)(=O)=O)C[C@@H]43)n(C)c2C)ccc1F | 5 to 30 µM |
| Cc1cc(NC(=O)c2c(Cl)c(C(=O)C(=O)N[C@H]3COC[C@@H]3O)n3c2CCCC3)ccc1F | > 30 µM |
| Cc1c(C(=O)Nc2ccc(F)c(Cl)c2)c2n(c1C(=O)C(=O)NC1(CO)CCC1)CCCC2 | 5 to 30 µM |
| Cc1cc(NC(=O)c2c(C)c(C(=O)C(=O)NCc3cnc(N)s3)n3c2CCCC3)cnc1F | > 30 µM |

CC50 at 7 days reading for Cc1c(C(=O)NC2(C)CCCC2)c2n(c1C(=O)C(=O)NC(C)(C)CO)CCCC2 : > 30 µM

CC50 at 7 days reading for Cc1cnc(C(NC(=O)C(=O)c2c(C)c(C(=O)Nc3ccc(F)c(C)c3)c(C)n2C)C2CC2)s1 (stereo not drawn) : 5 to 30 µM

CC50 at 7 days reading for CO[C@H]1CC[C@@H](NC(=O)C(=O)c2c(C)c(C(=O)Nc3ccc(F)c(C)c3)c(C)n2C)CC1 : 5 to 30 µM

CC50 at 7 days reading for Cc1cc(NC(=O)c2c(C)c(C(=O)C(=O)NC3(C)CCS(=O)(=O)CC3)n(C)c2C)ccc1F : > 30 µM

----------
# test-details: In vitro cytotoxicity assay (MTT cell viability) in HepG2 cells
# Assay type: cell-based, human
# test-parameters: human
CC50 at 7 days overview

| chem-smiles | CC50 at 7 days |
| --- | --- |
| Cc1cc(NC(=O)c2c(C)c(C(=O)C(=O)N[C@]3(C(F)(F)F)CC[C@H](O)CC3)n(C)c2C)ccc1F | > 30 µM |
| CC(C)(CO)CNC(=O)C(=O)c1c(Cl)c(C(=O)Nc2ccc(F)c(F)c2)c2n1CCCC2 | 0.5 to 4.99 µM |
| Cc1cc(NC(=O)c2c(Cl)c(C(=O)C(=O)NC(C)(C)CO)n3c2CCCC3)cnc1F | > 30 µM |

CC50 at 7 days reading for Cc1cc(NC(=O)c2cc(C(=O)C(=O)N[C@H](C)C(F)(F)F)n3c2CCCC3)ccc1F : > 30 µM

----------
CC50 at 7 days overview
# test-details: In vitro cytotoxicity assay (MTT cell viability) in HepG2 cells
# Type: cell-based, human
# test-parameters: human

| compound | CC50 at 7 days |
| --- | --- |
| COC(=O)[C@H](NC(=O)C(=O)c1c(C)c(C(=O)Nc2ccc(F)c(C)c2)c(C)n1C)[C@H](C)O [Example 28] | > 30 µM |

CC50 at 7 days reading for Cc1cc(NC(=O)c2c(C)c(C(=O)C(=O)N[C@@]3(C)CC[C@H](O)C3)n(C)c2C)ccc1F [Example 723] : > 30 µM

CC50 at 7 days reading for Cc1cc(NC(=O)c2c(C)c(C(=O)C(=O)N[C@@H](CO)C(C)(C)C)n(C)c2C)ccc1F [Example 78] : > 30 µM

----------
# test-details: In vitro cytotoxicity assay (MTT cell viability) in HepG2 cells
# Type: cell-based, human
# test-parameters: human
CC50 at 7 days overview

| compound | result |
| --- | --- |
| COC(=O)[C@H](NC(=O)C(=O)c1c(C)c(C(=O)Nc2ccc(F)c(C)c2)c(C)n1C)C1CCCCC1 | 0.5 to 4.99 µM |
| Cc1cc(NC(=O)c2c(C)c(C(=O)C(=O)NC3(CO)CC3)n(C)c2C)ccc1F | > 30 µM |
| Cc1c(C(=O)Nc2ccc(F)c(F)c2)c(C)n(C)c1C(=O)C(=O)Nc1ccc(F)nc1 | 5 to 30 µM |
| Cc1cc(NC(=O)c2c(C)c(C(=O)C(=O)NCC(C)(C)O)n(CCF)c2C)ccc1F | 5 to 30 µM |
| Cc1cnc(NC(=O)c2c(C)c(C(=O)C(=O)NC3(CO)CCC3)n3c2CCCC3)s1 | > 30 µM |
| Cc1cnc(C(C)(C)NC(=O)C(=O)c2c(C)c(C(=O)Nc3ccc(F)c(C)c3)c(C)n2C)s1 | > 30 µM |
| Cc1cc(NC(=O)c2c(C)c(C(=O)C(=O)NC3C4CC5CC(C4)CC3C5)n(C)c2C)ccc1F (centres unmarked) | 0.5 to 4.99 µM |

Here is the next item to consider.
CC50 at 7 days reading for CC(C)(CO)NC(=O)C(=O)c1cc(C(=O)Nc2cc(F)c(F)c(F)c2)c2n1CCCC2 : > 30 µM

----------
# test-details: In vitro cytotoxicity assay (MTT cell viability) in HepG2 cells
# Assay type: cell-based, human
# test-parameters: human
observed-property: CC50 at 7 days

| chem-smiles | CC50 at 7 days |
| --- | --- |
| Cc1cc(NC(=O)c2c(C)c(C(=O)C(=O)Nc3ccc(F)cn3)n(C)c2C)cnc1F | > 30 µM |
| Cc1cc(NC(=O)c2c(C)c(C(=O)C(=O)N[C@H]3CC[C@](O)(C(F)(F)F)CC3)n(C)c2C)ccc1F | 5 to 30 µM |

Here is the next item to consider.
CC50 at 7 days reading for Cc1cc(NC(=O)c2c(C)c(C(=O)C(=O)N[C@@H](C(=O)NCCO)C(C)(C)C)n(C)c2C)ccc1F : 5 to 30 µM

----------
CC50 at 7 days overview
# test-details: In vitro cytotoxicity assay (MTT cell viability) in HepG2 cells
# Type: cell-based, human
# test-parameters: human

| chem-smiles | result |
| --- | --- |
| Cc1cc(NC(=O)c2c(C)c(C(=O)C(=O)N[C@@H](C(=O)O)C(C)C)n(C)c2C)ccc1F | 5 to 30 µM |
| Cc1c(C(=O)Nc2ccc(F)nc2)c(C)n(C)c1C(=O)C(=O)NC1(C(F)(F)F)CCOCC1 | > 30 µM |
| Cc1cc(NC(=O)c2c(C)c(C(=O)C(=O)N[C@@H]3CCCC[C@H]3O)n(C)c2C)ccc1F | > 30 µM |
| Cc1cc(NC(=O)c2c(C)c(C(=O)C(=O)NCC(C)(C)O)n3c2CCCC3)ccc1F | 5 to 30 µM |
| Cc1cc(NC(=O)c2c(C)c(C(=O)C(=O)N[C@H]3C4CC5CC3C[C@](O)(C5)C4)n(C)c2C)cnc1F | > 30 µM |

CC50 at 7 days reading for Cc1csc(NC(=O)C(=O)c2c(C)c(C(=O)Nc3cc(F)c(F)c(F)c3)c(C)n2C)n1 : 5 to 30 µM

CC50 at 7 days reading for Cc1cc(NC(=O)c2c(Cl)c(C(=O)C(=O)NCC(C)(C)CO)n3c2CCC3)cnc1F : > 30 µM

CC50 at 7 days reading for CC(=O)N1CC[C@@H](NC(=O)C(=O)c2c(C)c(C(=O)Nc3ccc(F)c(C)c3)c(C)n2C)C1 : > 30 µM

----------
# test-details: In vitro cytotoxicity assay (MTT cell viability) in HepG2 cells
# Type: cell-based, human
# test-parameters: human
observed-property: CC50 at 7 days

Some compounds with recorded CC50 at 7 days:
| compound | CC50 at 7 days |
| --- | --- |
| Cc1noc([C@H](C)NC(=O)C(=O)c2c(C)c(C(=O)Nc3ccc(F)c(C)c3)c(C)n2C)n1 [Example 215] | > 30 µM |
| Cc1c(C(=O)Nc2ccc(F)c(Cl)c2)c(C)n(C)c1C(=O)C(=O)Nc1ccc(F)c(F)c1 [Example 313] | 5 to 30 µM |

CC50 at 7 days reading for Cc1cc(NC(=O)c2c(Cl)c(C(=O)C(=O)NCC(C)(C)O)n(C)c2C)ccc1F [Example 364] : 5 to 30 µM

CC50 at 7 days reading for Cc1cc(NC(=O)c2c(C)c(C(=O)C(=O)Nc3ccc(F)nc3)n(C)c2C)ccc1F [Example 212] : 5 to 30 µM

CC50 at 7 days reading for Cc1cc(NC(=O)c2c(Cl)c(C(=O)C(=O)N[C@@H](C)C(F)(F)F)n3c2CCC3)cnc1F [Example 574] : 5 to 30 µM

CC50 at 7 days reading for COc1cc(NC(=O)C(=O)c2c(C)c(C(=O)Nc3ccc(F)c(C)c3)c(C)n2C)ccc1B(O)O [Example 248] : 5 to 30 µM

CC50 at 7 days reading for Cc1cc(NC(=O)c2c(Cl)c(C(=O)C(=O)N[C@@H](C)C(F)(F)F)n3c2CCCC3)cnc1F [Example 731] : 5 to 30 µM

CC50 at 7 days reading for Cc1c(C(=O)Nc2cccc(Cl)c2)c(C)n(C)c1C(=O)C(=O)NC(C)(C)CN1CCOCC1 [Example 601] : > 30 µM

CC50 at 7 days reading for O=C(NC1(CO)CC(F)(F)C1)C(=O)c1c(Cl)c(C(=O)Nc2ccc(F)c(Cl)c2)c2n1CCCC2 [Example 515] : 5 to 30 µM

src = patent US20190375708A1
